Origin of values: ChEMBL document CHEMBL1201862

tested on: HT-29; experiment: NCI tumour cell line growth inhibition, 48 h
Active and inactive are the calls of the source. Cut-off read from the data, not from the text of the source: active = GI50 up to about 1.1 µM and inactive = higher. *1 amine or outer side, *2 acyl side, *3 side chain or, on linkers, in order; H or OH if unused. Where a SMILES comes first, the peptide text is derived from it. Bridges are numbered along the chain shown (N, C = ends). Roman numbers before positions name the chains, in order. [ ]: non-standard residue; d: D form. Actinocin(1to9) = Cc1c2oc3c(C)ccc(C(=O)[*:2])c3nc-2c(C(=O)[*:1])c(N)c1=O; NMeV = CN[CH](C(=O)O)C(C)C; Sar = CNCC(=O)O
Attribute measured: GI50

Use the examples below as a reference point.
INSERT INTO results (compound, reported_result) VALUES
  ('CCOC(=O)N1C(c2ccccc2)C=CC(c2ccccc2)N1C(=O)OCC (stereo unspecified)', '> 100 µM (inactive)'),
  ('Cc1ccc(C(=O)NC2C(=O)NC(C(C)C)C(=O)N3CCCC3C(=O)N(C)CC(=O)N(C)C(C(C)C)C(=O)OC2C)c2c1Oc1c(c(C(=O)NC3C(=O)NC(C(C)C)C(=O)N4CCCC4C(=O)N(C)CC(=O)N(C)C(C(C)C)C(=O)OC3C)c3nc(-c4ccccc4)c(=O)oc3c1C)N2 (stereo unspecified)', '< 0.001 µM (active)'),
  ('CCC(C)C1NC(=O)C(NC(=O)c2c3nc4c(C(=O)NC5C(=O)NC(C(C)C)C(=O)N6CCCC6C(=O)N(C)CC(=O)N(C)C(C(C)C)C(=O)OC5C)ccc(C)c4oc-3c(C)c(=O)c2N)C(C)OC(=O)C(C(C)C)N(C)C(=O)CN(C)C(=O)C2CCCN2C1=O (stereo unspecified) (I: TIP[Sar][NMeV] / II: TVP[Sar][NMeV]; ester I:1-I:C, II:1-II:C; linker I:N-II:N via Actinocin(1to9); configuration not given here)', '< 0.0001 µM (active)'),
  ('CCOP(=O)(C/C=C/Cn1ncc(=O)[nH]c1=O)OCC', '> 100 µM (inactive)'),
  ('CCOC(=O)Cc1nn2c(=O)cc(C)nc2s1', '> 100 µM (inactive)');

Shifting focus to the compound that follows.
Record request: GI50 value, item CCOC(=O)c1c(N/C(S)=N/c2ccccc2)sc2c1CCOC2 89.9 µM (inactive)

----------
test system: OVCAR-5; assay: NCI tumour cell line growth inhibition, 48 h
The source made the active and inactive calls. Cut-off read from the data, not from the text of the source: active = GI50 up to about 1.1 µM and inactive = higher.
Could you please pick one outcome from this set? active, inactive

See these solved cases before continuing.
INSERT INTO measurements (molecule, class_name) VALUES
  ('COC(=O)C1(C)NCCc2c1[nH]c1ccccc21 (stereo not drawn)', 'inactive'),
  ('CCOC(NC(=O)CC)(C(F)(F)F)C(F)(F)F', 'inactive'),
  ('CC(C)C[C@H](NC(=O)[C@H](Cc1ccccc1)NC(=O)CCc1ccccc1)B(O)O', 'active');

Next up:
Test call for this molecule, please: COC(=O)Cc1cc(=O)n2c3ccccc3n(C)c2c1C#N inactive

----------
tested on: U-251; experiment: NCI tumour cell line growth inhibition, 48 h
Activity calls are given as the source filed them. No stated cut-off is given here; in the data, active = GI50 up to about 1.1 µM and inactive = higher.
Could you please pick one outcome from this set? active, inactive

See these solved cases before continuing.
INSERT INTO measurements (molecule, class_name) VALUES
  ('COC1/C=C/C(C)C(OC)CC(O)/C=C/C(C)C(C(C)C(OC)C(C)CCC(=O)C(C)C(C/C=C/N(C)C=O)OC)OC(=O)/C=C/C=C(\C)CC(OC)C(OC)C2=CC(=O)O[C@@H](C(C)C(OC)C1)[C@H]2O (stereo not given in full)', 'active'),
  ('Cc1ccc(SC[C@@]2(C(F)F)NC(=O)NC2=O)cc1', 'inactive'),
  ('Nc1ccn(CCOC(=O)c2ccccc2)c(=O)n1', 'inactive'),
  ('C=CCn1c(-c2ccc(Cl)cc2)cs/c1=N\c1ccccc1OC', 'inactive'),
  ('Clc1cc2ccccc2c2ccccc12', 'inactive');

Test call for this molecule, please: C#CC1(O)CCC2C3CCc4cc(Oc5nc(F)nc(-c6c7ccccc7c7n6CCS7)n5)ccc4C3CC[C@@]21C (stereo not given in full) inactive

Test call for this molecule, please: O=C(CCc1ccccc1)NCCc1ccc(O)c(O)c1 inactive

Test call for this molecule, please: O=C1/C(=C\c2ccc(Cl)cc2)N=C(c2ccccc2)N1n1c(=O)cn[nH]c1=S inactive

Test call for this molecule, please: O=C(C(=O)n1ccc2ccccc21)c1c[nH]c2ccccc12 inactive

Test call for this molecule, please: O=C(O)CNc1c2ccccc2[n+]([O-])c2ccccc12 inactive

----------
test system: U-251; experiment: NCI tumour cell line growth inhibition, 48 h
Activity calls are given as the source filed them. Rule as the data show it: active = GI50 up to about 1.1 µM and inactive = higher.
Attribute measured: GI50

Use the examples below as a reference point.
INSERT INTO results (compound, reported_result) VALUES
  ('CC1=NN(c2nc(N)nc(C(C#N)C(=O)c3cc4c(cc3Cl)Sc3nccn3S4(=O)=O)n2)C(C)(C)C1 (stereo not drawn)', '16 µM (inactive)'),
  ('NC(=O)c1sc2nc3ccccc3n2c1N', '28.2 µM (inactive)'),
  ('CC1(C)C2CCC13CS(=O)(=O)N1O[C@]13C(=O)O2 (stereo partly drawn)', '> 100 µM (inactive)'),
  ('COc1ccc2c(c1)CC[C@@H]1[C@@H]2CC[C@]2(C)C(=O)/C(=C/c3cc(OC)c(OC)c(OC)c3)C[C@@H]12', '34.8 µM (inactive)'),
  ('O=C1OC(C2Cc3ccc4ccccc4c3C2=O)c2ccccc21 (stereo not drawn)', '32.7 µM (inactive)');

Record request: GI50 value, item COc1cc2c(cc1OCCCCN1C(=O)c3cccc4cccc(c34)C1=O)N=C[C@@H]1CCCN1C2=O 3.24 µM (inactive)

Record request: GI50 value, item CC1OC2=N[C@@H]1C(=O)N[C@@H](C(C)C)C1=N[C@H](C(=O)N[C@@H](C(C)C)C3=N[C@H](C(=O)N[C@@H](C(C)C)C4=N[C@H](C(=O)N[C@H]2C(C)C)C(C)O4)C(C)O3)C(C)O1 (stereo partly drawn) > 10 µM (inactive)

Record request: GI50 value, item C[n+]1c2ccccc2c(CNC(CS)C(=O)O)c2ccccc21 (stereo not drawn) 24.2 µM (inactive)

----------
test system: HCT-116; assay: NCI tumour cell line growth inhibition, 48 h
Active and inactive are the calls of the source. No stated cut-off is given here; in the data, active = GI50 up to about 1.1 µM and inactive = higher.
The following molecules are shown together with reported GI50 values.

Use the examples below as a reference point.
INSERT INTO measurements (molecule, attribute_measured, reported_result) VALUES
  ('C=C1C[C@@H]2CC[C@@]34CC5O[C@H]6C(O[C@H]7CC[C@H](CC(=O)O[C@@H]8[C@@H](C)[C@@H]9O[C@@H]%10C[C@]%11(C[C@@H]%12O[C@]%13(C[C@H](C)[C@@H]%14O[C@@H]%15CC(C(O)CO)O[C@@H]%15C[C@@H]%14O%13)C[C@H](C)[C@@H]%12O%11)O[C@@H]%10C[C@@H]9O[C@H]8CC8O[C@@H](CC[C@@H]1O2)C[C@@H](C)C8(O)CO)O[C@@H]7[C@@H]6O3)[C@H]5O4 (stereo partly specified)', 'GI50', '0.627 µM (active)'),
  ('Cc1cn(CC2=NC3CCCCC3N2)c(=O)[nH]c1=O (stereo unspecified)', 'GI50', '> 100 µM (inactive)'),
  ('CCOC(=O)CCC(NC(=O)Cc1ccc(Nc2nc3ccccc3nc2-c2ccccc2)cc1)C(=O)OCC (stereo unspecified)', 'GI50', '> 100 µM (inactive)'),
  ('COC1OC(CO)C(O)C(NC(=O)N(C)N=O)C1O (stereo unspecified)', 'GI50', '> 100 µM (inactive)'),
  ('C[C@@H](N[C@H]1CCC[C@@H]1O)c1ccccc1.C[C@@H](N[C@H]1CCC[C@H]1O)c1ccccc1', 'GI50', '34.9 µM (inactive)'),
  ('C/C=C/C(=O)Oc1cccc2cccnc12', 'GI50', '3.76 µM (inactive)');

Record request: GI50 value, item CN(C)C(=S)/N=c1\ss/c(=N\S(=O)(=O)c2ccccc2)n1C > 100 µM (inactive)

Record request: GI50 value, item COC1/C=C/C(C)C(OC)CC(O)/C=C/C(C)C(C(C)C(OC)C(C)CCC(=O)C(C)C(C/C=C/N(C)C=O)OC)OC(=O)/C=C/C=C(\C)CC(OC)C(OC)C2=CC(=O)O[C@@H](C(C)C(OC)C1)[C@H]2O (stereo partly specified) 0.00847 µM (active)

Record request: GI50 value, item CSc1[nH]cnc1C(N)=S > 100 µM (inactive)

Record request: GI50 value, item COC1C(OC(=O)c2ccc(C)[nH]2)C(O)C(Oc2ccc3c(O)c(NC(=O)c4ccc(O)c(CC=C(C)C)c4)c(=O)oc3c2Cl)OC1(C)C (stereo unspecified) 16.4 µM (inactive)

Record request: GI50 value, item CN1C(=O)c2ccccc2OC12C=Cc1c(ccc3ccccc13)O2 (stereo unspecified) 4.02 µM (inactive)

Record request: GI50 value, item COC1=C2CC(C)CC(OC)C(OC(=O)CCCN)C(C)/C=C(\C)C(OC(N)=O)C(OC)/C=C\C=C(/C)C(=O)NC(=CC1=O)C2=O (stereo unspecified) 3.98 µM (inactive)

Record request: GI50 value, item CSc1nc(C)c2c(n1)SCC2 > 10 µM (inactive)
